# assayTarget: Neu5Ac(a2-6)Gal(b1-4)GlcNAc(b1-3)Gal(b1-4)[Fuc(a1-3)]GlcNAc(b1-3)Gal(b1-4)[Fuc(a1-3)]GlcNAc
# assayExplanation: glycan array binding signal (z-score within array); higher = stronger binding
# measurementContext: glycan notation: IUPAC condensed, linker removed
The entries come from a sample that favours the strongest signals as a whole.
readoutKind: glycan array binding signal (z-score)
Please respond with just the number, no unit label.

Consider the worked cases shown below.
Documented glycan array binding signal (z-score) of Gal 8 (Homo sapiens), O00214 (protein) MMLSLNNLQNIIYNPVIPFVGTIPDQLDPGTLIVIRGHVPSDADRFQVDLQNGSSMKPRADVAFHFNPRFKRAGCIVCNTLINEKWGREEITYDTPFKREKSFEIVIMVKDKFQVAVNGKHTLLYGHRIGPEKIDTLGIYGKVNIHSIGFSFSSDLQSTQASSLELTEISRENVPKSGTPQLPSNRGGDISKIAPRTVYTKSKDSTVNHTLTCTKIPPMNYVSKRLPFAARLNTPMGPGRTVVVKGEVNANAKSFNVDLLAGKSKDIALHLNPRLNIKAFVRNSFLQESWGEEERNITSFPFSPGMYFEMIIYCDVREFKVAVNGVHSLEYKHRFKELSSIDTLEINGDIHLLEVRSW : -0.365

Documented glycan array binding signal (z-score) of AT5G01260(PC)(40) (Arabidopsis thaliana), Q9LFB0 (protein) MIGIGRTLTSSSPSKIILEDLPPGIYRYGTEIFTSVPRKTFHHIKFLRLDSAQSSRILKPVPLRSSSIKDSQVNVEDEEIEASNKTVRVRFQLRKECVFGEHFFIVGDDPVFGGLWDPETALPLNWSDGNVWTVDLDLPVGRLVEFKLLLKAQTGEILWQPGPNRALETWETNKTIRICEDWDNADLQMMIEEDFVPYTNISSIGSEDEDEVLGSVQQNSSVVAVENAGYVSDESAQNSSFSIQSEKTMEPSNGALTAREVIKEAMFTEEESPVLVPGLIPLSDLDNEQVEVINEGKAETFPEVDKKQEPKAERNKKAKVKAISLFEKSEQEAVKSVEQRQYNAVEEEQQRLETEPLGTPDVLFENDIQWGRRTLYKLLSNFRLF : -0.054

Documented glycan array binding signal (z-score) of HPAIIITrx (Helix pomatia), Q1KM18 (protein) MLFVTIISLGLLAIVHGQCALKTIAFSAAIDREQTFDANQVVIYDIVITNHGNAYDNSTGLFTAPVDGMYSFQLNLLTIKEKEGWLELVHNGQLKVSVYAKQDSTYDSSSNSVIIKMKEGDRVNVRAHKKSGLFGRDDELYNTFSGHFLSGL : -0.392

Would you kindly look at the next entry?
Documented glycan array binding signal (z-score) of ACA (Amaranthus caudatus) (protein) MAGLPVIMCLKSNNNQKYLRYQSDNIQQYGLLQFSADKILDPLAQFEVEPSKTYDGLVHIKSRYTNKYLVRWSPNHYWITASANEPDENKSNWACTLFKPLYVEEGNMKKVRLLHVQLGHYTQNYTVGGSFVSYLFAESSQIDTGSKDVFHVIDWKSIFQFPKRYVTFKGNNGKYLGVITINQLPCLQFGYDNLNDPKVAHEMFVTSNGTICIKSTYMNKFWRLSTDDWILVDGNDPRETNEAAALFRSDVHDFNVISLLNMQKTWFIKRFTSGKPGFINCMNAATQNVDETAILEIIELGSNN : 0.326

Source listed as the supplement of paper PMC8728848.
